IC50 overview
Target: Tyrosyl-DNA phosphodiesterase 1 (Homo sapiens)
Test: Inhibition of human tyrosyl-DNA phosphodiesterase 1 after 30 mins by alpha high throughput screening assay in presence of 0.05% Tween-20
Please format your answer as a value with the unit trailing.

Here are 4 molecules together with their reported answers.
COc1cc(/C=C/C(=O)OC(C(=O)N2CCCCC2)c2ccccc2)ccc1O (stereo not given) = 70.8 µM
CCOc1cccc2cc(C(=O)OCC(=O)c3c[nH]c4ccccc34)c(=O)oc12 = 22.4 µM
Cc1cc(C)nc(N/C=C(\C#N)C(=O)c2cccc(CSc3ccccc3)c2)n1 = 79.4 µM
COC(=O)c1ccc(COc2ccc(C3Nc4ccccc4C(=O)N3C3CC3)cc2OC)cc1 (stereo not given) = 89.1 µM

Consider now this further molecule.
Specify measured IC50 for O=C(/C=C/c1ccc(C(F)(F)F)cc1)OC(C(=O)NC1CC1)c1ccccc1 (stereo not given) .
44.7 µM

====

Target: Tyrosyl-DNA phosphodiesterase 1 (Homo sapiens)
Assay: Inhibition of human tyrosyl-DNA phosphodiesterase 1 after 30 mins by alpha high throughput screening assay
IC50 overview
Only the number, expressed in µM, is required.

Fc1cccc(Cl)c1/C=N/N=C1c2ccccc2-c2ccccc21 = 14

Consider now this further compound.
Specify measured IC50 for `O=c1c2ccccc2c2ccccc2c(=O)n1-c1cccc2c1ccc1c3ccccc3ccc21` .
5

====

Biological target: Tyrosyl-DNA phosphodiesterase 1 (Homo sapiens, UniProt Q9NUW8)
Sequence (Q9NUW8 whole entry): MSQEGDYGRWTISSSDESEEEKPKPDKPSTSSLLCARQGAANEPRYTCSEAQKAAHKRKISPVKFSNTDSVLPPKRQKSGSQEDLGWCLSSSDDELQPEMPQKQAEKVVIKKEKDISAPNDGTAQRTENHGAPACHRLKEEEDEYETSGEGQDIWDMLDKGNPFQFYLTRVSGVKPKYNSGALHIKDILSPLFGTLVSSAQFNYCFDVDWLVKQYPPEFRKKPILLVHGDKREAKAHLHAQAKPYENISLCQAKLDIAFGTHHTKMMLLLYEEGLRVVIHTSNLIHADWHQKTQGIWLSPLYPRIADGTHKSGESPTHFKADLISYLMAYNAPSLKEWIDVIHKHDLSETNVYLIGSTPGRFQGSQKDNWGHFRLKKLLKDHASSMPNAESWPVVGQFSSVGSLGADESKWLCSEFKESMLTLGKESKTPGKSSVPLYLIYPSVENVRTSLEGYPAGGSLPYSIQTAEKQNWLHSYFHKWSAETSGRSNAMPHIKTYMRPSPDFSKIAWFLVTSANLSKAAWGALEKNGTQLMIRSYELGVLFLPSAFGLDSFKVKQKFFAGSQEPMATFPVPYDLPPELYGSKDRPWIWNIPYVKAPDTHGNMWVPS
Assay: Inhibition of human tyrosyl-DNA phosphodiesterase 1 after 30 mins by alpha high throughput screening assay in presence of 0.05% Tween-20
IC50 overview
Only the number, expressed in µM, is required.

Here are 2 compounds together with their reported answers.
CCOC(=O)c1sc(N2C(=O)c3oc4ccc(F)cc4c(=O)c3C2c2ccc(C)cc2)nc1C (stereo not drawn) = 50.1
CCOC(=O)CN(C(=O)COC(=O)Cc1c[nH]c2ccccc12)c1ccc(F)cc1 = 11.2

Consider now this further compound.
Fill in: IC50 on Tyrosyl-DNA phosphodiesterase 1 (Homo sapiens, UniProt Q9NUW8), entry `O=C(OCc1cn2ccccc2n1)c1c2c(nc3ccccc13)CCC2`
50.1

====

Target: Tyrosyl-DNA phosphodiesterase 1 (Homo sapiens, UniProt Q9NUW8)
Experiment: Inhibition of human tyrosyl-DNA phosphodiesterase 1 after 30 mins by alpha high throughput screening assay in presence of 0.01% Tween-20
IC50 overview
Only the number, expressed in µM, is required.

Here are 3 compounds together with their reported answers.
O=C(/C=C/c1ccc(C(F)(F)F)cc1)OC(C(=O)NC1CC1)c1ccccc1 (stereo not drawn) = 31.6
CCOC(=O)c1sc(N2C(=O)c3oc4ccc(F)cc4c(=O)c3C2c2ccc(C)cc2)nc1C (stereo not drawn) = 44.7
COc1cc(/C=C/C(=O)OC(C(=O)N2CCCCC2)c2ccccc2)ccc1O (stereo not drawn) = 79.4

Specify measured IC50 for `CCOC(=O)CN(C(=O)COC(=O)Cc1c[nH]c2ccccc12)c1ccc(F)cc1` .
7.94

Specify measured IC50 for `O=C(OCc1cn2ccccc2n1)c1c2c(nc3ccccc13)CCC2` .
35.5

Specify measured IC50 for COC(=O)c1ccc(COc2ccc(C3Nc4ccccc4C(=O)N3C3CC3)cc2OC)cc1 (stereo not drawn) .
44.7

Specify measured IC50 for `Cc1cc(C)nc(N/C=C(\C#N)C(=O)c2cccc(CSc3ccccc3)c2)n1` .
100

Specify measured IC50 for `CCOc1cccc2cc(C(=O)OCC(=O)c3c[nH]c4ccccc34)c(=O)oc12` .
14.1

Reference for the values: ChEMBL document CHEMBL1157706
